src = ChEMBL document CHEMBL1681684

Tested on: HT-29
assay-procedure: Anticancer activity against human HT-29 cells assessed as growth inhibition at 100 uM by MTT assay
Format: functional
Please note: yes applies when inhibition at 100 µM is 60% or greater, and no applies otherwise.

COc1ccc(Nc2nc(NCc3ccccc3)c3ccccc3n2)cc1: yes
O=S(=O)(NCCc1c[nH]c2ccc(F)cc12)c1ccc(Br)cc1OC(F)(F)F: yes
CN(C)CCNc1nc(-c2ccc(C(C)(C)C)cc2)nc2ccccc12: yes
COc1ccccc1N/N=C1/C(=O)N(C(N)=S)N=C1c1ccccc1: no

Challenge: Could you verify whether the entry `Cc1cccc(Nc2nc(NCc3ccco3)c3ccccc3n2)c1` shows inhibition at 100 µM of no less than 60%?
Response given: yes

Challenge: Could you verify whether the entry `O=S(=O)(NCCC(c1ccccc1)c1ccccc1)c1ccc(Cl)cc1` shows inhibition at 100 µM of no less than 60%?
Response given: yes

Challenge: Could you verify whether the entry `O=[N+]([O-])c1cccnc1Sc1ccccc1NS(=O)(=O)c1ccc(Cl)cc1Cl` shows inhibition at 100 µM of no less than 60%?
Response given: no

* * *

Test system: SK-OV-3
assay-procedure: Anticancer activity against human SKOV3 cells by MTT assay
Assay type: functional, cell-based
Item-by-item account of pIC50
Entry type: numeric. Quantity: pIC50, the -log10 of concentration in molar units.

O=[N+]([O-])c1cccnc1Sc1ccccc1NS(=O)(=O)c1ccc(Cl)cc1Cl: 4.16
Oc1ccc(C2=Nc3ccccc3S[C@H](c3ccccc3)C2)cc1: 4.21
C[C@H](Nc1nc(N2CCNCC2)nc2ccccc12)c1ccccc1: 4.84
COc1ccccc1N/N=C1/C(=O)N(C(N)=S)N=C1c1ccccc1: 4.12
CCC(C)(C)c1ccc(O)c(NS(=O)(=O)c2ccccc2OC(F)(F)F)c1: 4.41
O=S(=O)(NCCC(c1ccccc1)c1ccccc1)c1ccc(Cl)cc1: 4.46

Then there is this molecule:
Sure, the documented pIC50 for `O[C@H]1CCN(c2nc(Nc3cccc4c3CCCC4)c3ccccc3n2)C1` is 4.77

* * *

Test system: HT-29
assay-procedure: Anticancer activity against human HT-29 cells by MTT assay
Format: functional, cell-based
Label 1 (yes) when IC50 is strictly below 20 µM; otherwise label 0 (no).

Answered examples (5):
COc1ccc(Nc2nc(NCc3ccccc3)c3ccccc3n2)cc1: 1 (yes)
O=S(=O)(Nc1ccccc1Oc1ccc(Cl)cc1Cl)c1ccccc1: 0 (no)
O[C@H]1CCN(c2nc(Nc3cccc4c3CCCC4)c3ccccc3n2)C1: 1 (yes)
O=S(=O)(NCCC(c1ccccc1)c1ccccc1)c1ccc(Cl)cc1: 1 (yes)
Oc1ccc(Nc2nc(NCc3ccco3)c3ccccc3n2)cc1: 1 (yes)

Challenge: API: query returns whether the molecule falls strictly under 20 µM in IC50. Query: `CCC(C)(C)c1ccc(O)c(NS(=O)(=O)c2ccccc2OC(F)(F)F)c1`
Response given: 0 (no)

Challenge: API: query returns whether the molecule falls strictly under 20 µM in IC50. Query: `COc1ccccc1N/N=C1/C(=O)N(C(N)=S)N=C1c1ccccc1`
Response given: 0 (no)

Challenge: API: query returns whether the molecule falls strictly under 20 µM in IC50. Query: `O=S(=O)(NCCc1c[nH]c2ccc(F)cc12)c1ccc(Br)cc1OC(F)(F)F`
Response given: 0 (no)

Challenge: API: query returns whether the molecule falls strictly under 20 µM in IC50. Query: `COc1ccc(Nc2nc(NCc3ccco3)c3ccccc3n2)cc1`
Response given: 1 (yes)

Challenge: API: query returns whether the molecule falls strictly under 20 µM in IC50. Query: `Fc1ccc(Nc2nc(NCc3ccccc3)c3ccccc3n2)cc1`
Response given: 1 (yes)

Challenge: API: query returns whether the molecule falls strictly under 20 µM in IC50. Query: `C[C@H](Nc1nc(N2CCNCC2)nc2ccccc12)c1ccccc1`
Response given: 1 (yes)

Challenge: API: query returns whether the molecule falls strictly under 20 µM in IC50. Query: `COc1cc(C2N(c3ccc(C)cc3)CCN2c2ccc(C)cc2)ccc1O`
Response given: 0 (no)

Challenge: API: query returns whether the molecule falls strictly under 20 µM in IC50. Query: `Oc1cccc(Nc2nc(NCc3ccccc3)c3ccccc3n2)c1`
Response given: 1 (yes)

Challenge: API: query returns whether the molecule falls strictly under 20 µM in IC50. Query: `CCOc1ccc(Nc2nc(NCc3ccccc3)c3ccccc3n2)cc1`
Response given: 1 (yes)

Challenge: API: query returns whether the molecule falls strictly under 20 µM in IC50. Query: `O=[N+]([O-])c1cccnc1Sc1ccccc1NS(=O)(=O)c1ccc(Cl)cc1Cl`
Response given: 0 (no)

Challenge: API: query returns whether the molecule falls strictly under 20 µM in IC50. Query: `Oc1ccc(C2=Nc3ccccc3S[C@H](c3ccccc3)C2)cc1`
Response given: 0 (no)

Challenge: API: query returns whether the molecule falls strictly under 20 µM in IC50. Query: `CN(C)CCNc1nc(-c2ccc(C(C)(C)C)cc2)nc2ccccc12`
Response given: 1 (yes)

Challenge: API: query returns whether the molecule falls strictly under 20 µM in IC50. Query: `Cc1cccc(Nc2nc(NCc3ccco3)c3ccccc3n2)c1`
Response given: 1 (yes)

* * *

System: HT-29
assay-procedure: Anticancer activity against human HT-29 cells assessed as growth inhibition at 100 uM by MTT assay
Assay type: functional
Please note: 1 applies when inhibition at 100 µM is 80% or greater, and 0 applies otherwise.

Answered examples (4):
COc1cc(C2N(c3ccc(C)cc3)CCN2c2ccc(C)cc2)ccc1O: 0
CCC(C)(C)c1ccc(O)c(NS(=O)(=O)c2ccccc2OC(F)(F)F)c1: 0
C[C@H](Nc1nc(N2CCNCC2)nc2ccccc12)c1ccccc1: 1
Oc1ccc(Nc2nc(NCc3ccco3)c3ccccc3n2)cc1: 1

Challenge: Could you verify whether the entry `Fc1ccc(Nc2nc(NCc3ccccc3)c3ccccc3n2)cc1` shows inhibition at 100 µM of no less than 80%?
Response given: 1

* * *

System: HT-29
assay-procedure: Anticancer activity against human HT-29 cells assessed as growth inhibition at 100 uM by MTT assay
Type: functional
measure-name: inhibition at 100 µM
Units required after the number.

// below: answered molecules
O[C@H]1CCN(c2nc(Nc3cccc4c3CCCC4)c3ccccc3n2)C1: 86.1%
CCOc1ccc(Nc2nc(NCc3ccccc3)c3ccccc3n2)cc1: 92.9%
Oc1ccc(C2=Nc3ccccc3S[C@H](c3ccccc3)C2)cc1: 67.9%
COc1ccc(Nc2nc(NCc3ccco3)c3ccccc3n2)cc1: 90.9%

Then there is this molecule:
Sure, the documented inhibition at 100 µM for `O=S(=O)(Nc1ccccc1Oc1ccc(Cl)cc1Cl)c1ccccc1` is 51.1%

* * *

Item-by-item account of IC50
System: SK-OV-3
assay-procedure: Anticancer activity against human SKOV3 cells by MTT assay
Format: functional, cell-based

// below: answered compounds
COc1cc(C2N(c3ccc(C)cc3)CCN2c2ccc(C)cc2)ccc1O: > 100 µM
O=S(=O)(Nc1ccccc1Oc1ccc(Cl)cc1Cl)c1ccccc1: > 100 µM

Then there is this compound:
Sure, the documented IC50 for `O=S(=O)(NCCc1c[nH]c2ccc(F)cc12)c1ccc(Br)cc1OC(F)(F)F` is > 100 µM
